B1: tRNA (parent)
chain: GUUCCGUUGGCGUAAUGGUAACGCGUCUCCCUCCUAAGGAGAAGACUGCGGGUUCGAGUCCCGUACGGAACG

- Variants of: B1
- test-description: yeast fitness relative to wild type (ratio to wild type); higher = fitter; tRNA-Arg(CCU), competitive growth, 37 C, YPD
Variants at the floor of the assay were thinned out.
Ranges used to classify yeast fitness: low: < 0.6; medium: ≥ 0.6 and < 0.7; high: ≥ 0.7

- mutant-designation: "A57U C61U"
  discrete-label: "medium"
- mutant-designation: "G6C C33U G38C G52C C62U"
  discrete-label: "low"
- mutant-designation: "G23A G48C C55G"
  discrete-label: "low"
- mutant-designation: "C11U A36U A43C A57G"
  discrete-label: "high"
- mutant-designation: "C4U G12A A40U A65C"
  discrete-label: "low"
- mutant-designation: "U3A C24U U32C"
  discrete-label: "low"
- mutant-designation: "C24U C31G U54C C62G"
  discrete-label: "low"
- mutant-designation: "G17C C34U"
  discrete-label: "low"
- mutant-designation: "G38A C46A A57G"
  discrete-label: "high"
- mutant-designation: "A15U C46A U59C"
  discrete-label: "low"
- mutant-designation: "A20U C66U A70U"
  discrete-label: "medium"
- mutant-designation: "C55G C62A"
  discrete-label: "medium"
- mutant-designation: "U3G C5G C11U C29U U32C C60U"
  discrete-label: "low"
- mutant-designation: "U19C A37U C66G"
  discrete-label: "low"
- mutant-designation: "C5A C55A A69C"
  discrete-label: "low"
- mutant-designation: "U2C C11A G41C C61A"
  discrete-label: "low"
- mutant-designation: "G10C C27A C34A A40G C60U A65U"
  discrete-label: "low"
- mutant-designation: "G6A U54C A57U G58A A65U"
  discrete-label: "low"
- mutant-designation: "C5U A20C A70U"
  discrete-label: "high"
- mutant-designation: "C22A C30U C31G"
  discrete-label: "low"

Data credit: the RNAGym collection of RNA variant scans (doi:10.1126/science.aae0568)
